System: HCV 1b-genotype replicon Con1b
method-notes: HCV replicon luciferase assay, HCV-1b replicon (Huh7-Con1b, firefly luciferase)
Type: cell-based
experimental-conditions: Hepatitis C virus, Huh7-Con1b cells, 72 hours
From the text: In brief, three stably-transfected cell lines containing different HCV genotypes of replicons were used to test activity of the compounds in inhibiting the HCV replication. A Huh7-Con1b cell line contained an HCV 1b-genotype replicon Con1b and a reporter gene of firefly luciferase. […] The effect of the compounds described herein on the HCV replication can be evaluated through a chemiluminescence detection of the expression of the above two luciferase genes. […]
I'd be grateful if you could share measured pEC50 for these entries.
Field pEC50 (float): negative decimal logarithm of the concentration in molar.

Q: Tell me its pEC50 given "COC(=O)N[C@H](C(=O)N1CCC[C@H]1C(=O)Nc1ccc2c(c1)O[C@H](c1ccccc1)n1c-2cc2cc(NC(=O)[C@@H]3CCCN3C(=O)[C@@H](NC(=O)OC)C(C)C)ccc21)C(C)C" as the entry.
Result: 11.09

Q: Tell me its pEC50 given COC(=O)N[C@H](C(=O)N1CCC[C@H]1C(=O)Nc1ccc2c(c1)OC(c1ccccc1)n1c-2cc2cc(NC(=O)[C@@H]3CCCN3C(=O)[C@@H](NC(=O)OC)C(C)C)ccc21)C(C)C (some centres unmarked) as the entry.
Result: 10.70

Q: Tell me its pEC50 given COC(=O)N[C@H](C(=O)N1CC2(CC2)C[C@H]1C(=O)Nc1ccc2c(c1)OC(c1cc(F)cc(F)c1)n1c-2cc2cc(NC(=O)[C@@H]3CC4(CC4)CN3C(=O)[C@@H](NC(=O)OC)C(C)C)ccc21)C(C)C (some centres unmarked) as the entry.
Result: 11.63

Q: Tell me its pEC50 given COC(=O)N[C@H](C(=O)N1C[C@H](F)C[C@H]1C(=O)Nc1ccc2c(c1)OC(c1ccccc1)n1c-2cc2cc(NC(=O)[C@@H]3C[C@H](F)CN3C(=O)[C@@H](NC(=O)OC)C(C)C)ccc21)C(C)C (some centres unmarked) as the entry.
Result: 11.35

Q: Tell me its pEC50 given COC(=O)N[C@H](C(=O)N1CC2(CC2)C[C@H]1C(=O)Nc1ccc2c(c1)OC(c1ccccc1)n1c-2cc2cc(NC(=O)[C@@H]3CC4(CC4)CN3C(=O)[C@@H](NC(=O)OC)C(C)C)ccc21)C(C)C (some centres unmarked) as the entry.
Result: 11.30

Q: Tell me its pEC50 given "COC(=O)N[C@H](C(=O)N1CCC[C@H]1C(=O)Nc1ccc2c(c1)O[C@@H](c1c(F)c(F)c(F)c(F)c1F)n1c-2cc2cc(NC(=O)[C@@H]3CCCN3C(=O)[C@@H](NC(=O)OC)C(C)C)ccc21)C(C)C" as the entry.
Result: 11.50

Q: Tell me its pEC50 given "COC(=O)N[C@H](C(=O)N1CCC[C@H]1C(=O)Nc1ccc2c(c1)O[C@@H](c1cc(F)c(F)c(F)c1)n1c-2cc2cc(NC(=O)[C@@H]3CCCN3C(=O)[C@@H](NC(=O)OC)C(C)C)ccc21)C(C)C" as the entry.
Result: 11.52

Q: Tell me its pEC50 given COC(=O)N[C@H](C(=O)N1CC(F)(F)C[C@H]1C(=O)Nc1ccc2c(c1)OC(c1ccccc1)n1c-2cc2cc(NC(=O)[C@@H]3CC(F)(F)CN3C(=O)[C@@H](NC(=O)OC)C(C)C)ccc21)C(C)C (some centres unmarked) as the entry.
Result: 11.93

Q: Tell me its pEC50 given "COC(=O)N[C@H](C(=O)N1CCC[C@H]1C(=O)Nc1ccc2c(c1)O[C@@H](c1ccccc1)n1c-2cc2cc(NC(=O)[C@@H]3CCCN3C(=O)[C@@H](NC(=O)OC)C(C)C)ccc21)C(C)C" as the entry.
Result: 11.17

Q: Tell me its pEC50 given "COC(=O)N[C@H](C(=O)N1CCC[C@H]1C(=O)Nc1ccc2c(c1)O[C@@H](c1cc(F)cc(F)c1)n1c-2cc2cc(NC(=O)[C@@H]3CCCN3C(=O)[C@@H](NC(=O)OC)C(C)C)ccc21)C(C)C" as the entry.
Result: 11.36

Q: Tell me its pEC50 given COC(=O)N[C@H](C(=O)N1CCC[C@H]1C(=O)Nc1ccc2c(c1)OC(c1cc(F)cc(F)c1)n1c-2cc2cc(NC(=O)[C@@H]3CCCN3C(=O)[C@@H](NC(=O)OC)C(C)C)ccc21)C(C)C (some centres unmarked) as the entry.
Result: 11.44
